system: U251 CNS; experiment: NCI tumour cell line growth inhibition, 48 h
Let's look at some molecules and their measured TGI.

Example entries begin here.
molecule: Nc1ncnc2c1ncn2CCCCC(=O)O
readout: TGI
val: > 100 µM
//
molecule: Nn1c(CCCCCCCCc2n[nH]c(=S)n2N)n[nH]c1=S
readout: TGI
val: > 100 µM
//
molecule: CN(C)CCNC(=O)c1cccc2c1nc(-c1ccncc1)c1ccccc12
readout: TGI
val: 17 µM

QUERY: // Input: CCOc1nc2sc3c(c2c(=O)n1CCSSCCn1c(OCC)nc2sc4c(c2c1=O)CCCC4)CCCC3 . Output its TGI only.
RESULT: > 100 µM

QUERY: // Input: CN(C(=O)c1ccccc1)c1ccc2c(c1)C(=O)c1ccccc1C2=O . Output its TGI only.
RESULT: > 100 µM

QUERY: // Input: C[C@@H](Oc1cc(-c2cnn(C3CCNCC3)c2)cnc1N)c1c(Cl)cc(F)cc1Cl . Output its TGI only.
RESULT: 7.65 µM

QUERY: // Input: C=C1C(O)C2CC(C)(C)C(=O)C2=C(CC(C)C)C12CC2 (stereo unspecified) . Output its TGI only.
RESULT: > 100 µM

###

system: UO-31 renal; test: NCI tumour cell line growth inhibition, 48 h
Let's look at some compounds and their measured TGI.

Example entries begin here.
compound: O=C(CCl)Nc1ccc(Cc2ccc(NC(=O)CCl)cc2)cc1
system_name: UO-31 renal
readout: TGI
val: > 23.4 µM
--
compound: CCC(C(=O)[C@@H](C)[C@@H](O)[C@H](C)[C@@H]1O[C@@H]([C@@H](CC)C(=O)ONC(=O)c2ccccc2)CC[C@@H]1C)[C@H]1O[C@]2(C=CC(=O)[C@]3(CC[C@@](C)([C@H]4CC[C@](O)(CC)[C@H](C)O4)O3)O2)[C@H](C)C[C@@H]1C (stereo partly drawn)
system_name: UO-31 renal
readout: TGI
val: 1.79 µM
--
compound: CC(=O)OCC1=CC2CCC3C(C)(CCC[C@]3(C)COC(C)=O)C23CC[C@H]1C3 (stereo partly drawn)
system_name: UO-31 renal
readout: TGI
val: > 100 µM
--
compound: NC(=O)NC(=O)c1cccc(NC(=O)CCl)c1
system_name: UO-31 renal
readout: TGI
val: 0.452 µM
--
compound: CNC(=O)NCCN1N=C(C)/C(=C\c2ccccc2)CC1=O
system_name: UO-31 renal
readout: TGI
val: > 100 µM

QUERY: Please look at O=S(=O)(CF)OCCCCOS(=O)(=O)CF and tell me its recorded TGI on UO-31 renal.
RESULT: > 100 µM

QUERY: Please look at N[C@H]1CCN(c2c(F)cc3c(=O)c(C(=O)O)cn4c3c2Oc2c-4ccc3c2ccc2ccccc23)C1 and tell me its recorded TGI on UO-31 renal.
RESULT: > 71.3 µM

QUERY: Please look at CCOC(=O)c1cc2c(n1Cc1cc(OC)cc(OC)c1)-c1oncc1CC2 and tell me its recorded TGI on UO-31 renal.
RESULT: > 100 µM

###

tested on: PC-3 prostate; experiment: NCI tumour cell line growth inhibition, 48 h
readout: TGI

Example entries begin here.
compound: O=C(O)CCC(NC(=O)c1ccc(Oc2nc3ccccc3nc2-c2ccccc2)cc1)C(=O)O (stereo not drawn)
TGI: > 100 µM
//
compound: O=Cc1ccc(-c2ccc(S(=O)(=O)O)cc2)o1
TGI: > 100 µM

Next up:
QUERY: // Input: CC1(C)CN(CCNc2nccc(-c3c(-c4cccc(O)c4)nc4sccn34)n2)S(=O)(=O)N1 . Output its TGI only.
RESULT: > 33.2 µM
